Assay: NCI Yeast Anticancer Drug Screen. Data for the rad18 strain (AID 177)
Details: S. cerevisiae rad18 mutant growth inhibition; at 1.2 µM; hits give high values
This is part of a sample that, as a whole, favours compounds with a hit. Of some 79,000 tested, about 15% had one in any assay.
readout-name: growth inhibition (%)
A number alone suffices; assume %.

Noted for O=C(O)Cc1cc(F)ccc1C(=O)O : its growth inhibition reads 3

Noted for COc1cc([C@@H]2c3cc4c(cc3[C@H](OC3OC5COC(C(C)C)OC5C(O)C3O)C3COC(=O)[C@@H]32)OCO4)cc(OC)c1O (some centres not stated) : its growth inhibition reads 6

Noted for Nc1cc(N)c(N=Nc2cccc3c(S(=O)(=O)O)cccc23)cc1N=Nc1cc([N+](=O)[O-])ccc1O : its growth inhibition reads -13

Noted for CNC(=O)OCc1c(COC(=O)NC)c2n(c1C)-c1ccc(OC)cc1CCC2 : its growth inhibition reads -45

Noted for O=c1[nH]c2ccc(Cl)cc2o1 : its growth inhibition reads -39

Noted for CC(=O)SC(C[N+](=O)[O-])c1ccccc1 (configuration not stated) : its growth inhibition reads 19

Noted for C/C(=N\Nc1ccc([N+](=O)[O-])cc1[N+](=O)[O-])c1sc(-n2nc(-c3ccccc3)cc2-c2ccccc2)nc1C : its growth inhibition reads -9

Noted for CCCCCCCCCCCCNC(C)=O : its growth inhibition reads -4

Noted for O=C1C=C(N2CCN(c3ccccn3)CC2)C(=O)c2c(O)ccc(O)c21 : its growth inhibition reads 1

Noted for O=C(C[n+]1ccc2ccccc2c1)c1ccc2ccccc2c1 : its growth inhibition reads -21

Noted for O=C(COC(=O)c1ccccc1)c1ccc(Br)cc1 : its growth inhibition reads 15

Noted for Cc1nc2ccc(N=NN(C)C)cc2[nH]1 : its growth inhibition reads 18

Noted for CCC(C)OC(=O)Nc1ccc(C)c(NC(=O)OC(C)CC)c1 (configuration not stated) : its growth inhibition reads -4

Noted for CCN(CC)CCNc1ccc2ncn3c4cc(OC)c(OC)c(=O)c4c(O)c1c23 : its growth inhibition reads -4

Noted for NC(=O)C(=O)NNc1ccccc1 : its growth inhibition reads 6

Noted for O=C1OC(C2=CC(=O)c3ccccc3C2=O)C(Cl)=C1Cl (configuration not stated) : its growth inhibition reads 31

Noted for O=C(/C=C/c1cc(Cl)cc(Cl)c1O)c1cccc(O)c1 : its growth inhibition reads 14

###

Assign growth inhibition to each entry below.
Experiment: NCI Yeast Anticancer Drug Screen. Data for the wt1 strain (AID 149);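 further: 0% = growth of vehicle-treated wt1 cultures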
Conditions: S. cerevisiae wt1 strain (SPY 50644) growth inhibition; at 1.2 µM; hits give high values
About 79,000 compounds went through this panel and 15% of them were active in at least one assay; those are over-represented in the sample as a whole.
A number alone suffices; assume %.

Noted for CNC(=O)OCc1c(COC(=O)NC)c(-c2ccc(Cl)cc2)n2c1CCC2 : its growth inhibition reads -37

Noted for O=C1N=C2SC=C(NC(=S)Nc3ccccc3)N2NC12c1ccccc1-c1ccccc12 : its growth inhibition reads 3

Noted for O=C(NNc1ccccc1)c1ccc(Cl)c(Cl)c1 : its growth inhibition reads 0

Noted for COc1cccc2c1C(=O)c1c(O)c3c(c(O)c1C2=O)C[C@@](O)(C(C)=O)C[C@@H]3OC1CC(OC(C)=O)C(OC(C)=O)C(C)O1 (some centres undefined) : its growth inhibition reads -26

Noted for C[CH2][Sn]([CH2]C)([O]C(=O)C(N)Cc1ccccc1)[O]C(=O)C(N)Cc1ccccc1 (centres undefined) : its growth inhibition reads 1

Noted for O=[N+]([O-])c1cc[n+]([O-])cc1 : its growth inhibition reads -6

Noted for CC(NCCN(C)C)C1CCC2C3CCc4cc(O)ccc4C3CCC12C (centres undefined) : its growth inhibition reads -4

Noted for COc1ccc(C2C3=C(COC3=O)OC(C)(C)Oc3cc4c(cc32)OCO4)cc1OC (centres undefined) : its growth inhibition reads 9

Noted for O=C(/C=C\c1cccc(C(F)(F)F)c1)c1ccccc1 : its growth inhibition reads -1
